Each item that follows carries a reported Selectivity Index MAO-A/B.
SYSTEM: human recombinant MAO-B (Homo sapiens, UniProt P27338)
EXPERIMENTAL PROTOCOL: kynuramine oxidation deamination assay, MAO-B inhibition (IC50)
Format: biochemical
Design: purchased BD Biosciences (Bedford, MA, USA)
RUN PARAMETERS: ratio of IC50 MAO-A / MAO-B

{"CHEM SMILES": "CCCOc1ccc(-c2cc(=O)c3c(O)cc(OC)cc3o2)cc1", "QUALIFYING SIGN": "=", "Selectivity Index MAO-A/B": 1478.2}
{"CHEM SMILES": "COc1cc(O)c(C(=O)/C=C/c2ccc(OCC3CC3)cc2)c(OC)c1", "QUALIFYING SIGN": "=", "Selectivity Index MAO-A/B": 1.4}
{"CHEM SMILES": "COc1cc(OC)c2c(=O)cc(-c3ccc(OC(C)C)cc3)oc2c1", "QUALIFYING SIGN": ">", "Selectivity Index MAO-A/B": 37.9}
{"CHEM SMILES": "COc1cc(O)c(C(=O)/C=C/c2ccc(OC(C)C)cc2)c(OC)c1", "QUALIFYING SIGN": "=", "Selectivity Index MAO-A/B": 2.4}
{"CHEM SMILES": "COc1cc(OC)c2c(=O)cc(-c3ccc(OCC4CC4)cc3)oc2c1", "QUALIFYING SIGN": ">", "Selectivity Index MAO-A/B": 4.4}
{"CHEM SMILES": "COc1cc(O)c2c(=O)cc(-c3ccc(OC(C)C)cc3)oc2c1", "QUALIFYING SIGN": "=", "Selectivity Index MAO-A/B": 1921.3}
{"CHEM SMILES": "CCCNc1ccc(-c2cc(=O)c3c(OC)cc(OC)cc3o2)cc1", "QUALIFYING SIGN": ">", "Selectivity Index MAO-A/B": 4.5}
{"CHEM SMILES": "CCCOc1ccc(-c2cc(=O)c3c(OC)cc(OC)cc3o2)cc1", "QUALIFYING SIGN": ">", "Selectivity Index MAO-A/B": 58.8}
{"CHEM SMILES": "COc1cc(OC)c2c(=O)cc(-c3ccc(OCC(C)C)cc3)oc2c1", "QUALIFYING SIGN": ">", "Selectivity Index MAO-A/B": 13.8}
{"CHEM SMILES": "COc1cc(OC)c2c(=O)cc(-c3ccc(NCC4CC4)cc3)oc2c1", "QUALIFYING SIGN": "=", "Selectivity Index MAO-A/B": 3.1}
{"CHEM SMILES": "C#CCOc1ccc(-c2cc(=O)c3c(O)cc(OC)cc3o2)cc1", "QUALIFYING SIGN": "=", "Selectivity Index MAO-A/B": 1279.6}
{"CHEM SMILES": "COc1cc(O)c2c(=O)cc(-c3ccc(OCC(C)C)cc3)oc2c1", "QUALIFYING SIGN": ">", "Selectivity Index MAO-A/B": 3225.8}
{"CHEM SMILES": "C#CCOc1ccc(/C=C/C(=O)c2c(O)cc(OC)cc2OC)cc1", "QUALIFYING SIGN": "=", "Selectivity Index MAO-A/B": 1.1}
{"CHEM SMILES": "COc1cc(OC)c2c(=O)cc(-c3ccc(NC(C)C)cc3)oc2c1", "QUALIFYING SIGN": "=", "Selectivity Index MAO-A/B": 4.0}
{"CHEM SMILES": "COc1cc(O)c2c(=O)cc(-c3ccc(NC(C)C)cc3)oc2c1", "QUALIFYING SIGN": "=", "Selectivity Index MAO-A/B": 97.1}
{"CHEM SMILES": "C#CCOc1ccc(-c2cc(=O)c3c(OC)cc(OC)cc3o2)cc1", "QUALIFYING SIGN": ">", "Selectivity Index MAO-A/B": 1}
{"CHEM SMILES": "COc1cc(OC)c2c(=O)cc(-c3ccc(Br)cc3)oc2c1", "QUALIFYING SIGN": "=", "Selectivity Index MAO-A/B": 3.1}
{"CHEM SMILES": "CCCOc1ccc(/C=C/C(=O)c2c(O)cc(OC)cc2OC)cc1", "QUALIFYING SIGN": "=", "Selectivity Index MAO-A/B": 1.3}
{"CHEM SMILES": "CCCNc1ccc(-c2cc(=O)c3c(O)cc(OC)cc3o2)cc1", "QUALIFYING SIGN": "=", "Selectivity Index MAO-A/B": 55.0}
{"CHEM SMILES": "COc1cc(O)c2c(=O)cc(-c3ccc(NCC4CC4)cc3)oc2c1", "QUALIFYING SIGN": "=", "Selectivity Index MAO-A/B": 17.9}
{"CHEM SMILES": "COc1cc(O)c(C(=O)/C=C/c2ccc(OCC(C)C)cc2)c(OC)c1", "QUALIFYING SIGN": "=", "Selectivity Index MAO-A/B": 1.9}

###

SYSTEM: human recombinant MAO-B (Homo sapiens, UniProt P27338)
Sequence (P27338 1-520): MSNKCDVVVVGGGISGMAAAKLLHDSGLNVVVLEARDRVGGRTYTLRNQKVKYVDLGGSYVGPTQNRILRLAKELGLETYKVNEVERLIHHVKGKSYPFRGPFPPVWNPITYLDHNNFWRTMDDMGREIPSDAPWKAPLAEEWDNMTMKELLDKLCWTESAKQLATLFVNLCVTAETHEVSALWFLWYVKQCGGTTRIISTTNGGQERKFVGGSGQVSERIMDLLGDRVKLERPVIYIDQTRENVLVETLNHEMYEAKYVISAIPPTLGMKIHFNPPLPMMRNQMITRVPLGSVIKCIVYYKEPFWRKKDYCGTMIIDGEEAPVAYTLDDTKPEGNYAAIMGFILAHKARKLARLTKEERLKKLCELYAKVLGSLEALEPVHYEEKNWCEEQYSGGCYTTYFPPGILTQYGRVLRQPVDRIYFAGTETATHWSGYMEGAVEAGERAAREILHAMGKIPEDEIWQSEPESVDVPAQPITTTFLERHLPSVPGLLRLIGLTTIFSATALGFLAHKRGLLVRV
EXPERIMENTAL PROTOCOL: MAO-B inhibition kinetics, Lineweaver–Burk (Ki, type of inhibition)
Type: biochemical
Set-up: purchased BD Biosciences (Bedford, MA, USA)

{"CHEM SMILES": "COc1cc(O)c2c(=O)cc(-c3ccc(OCC(C)C)cc3)oc2c1", "Monoamine Oxidase B Type of Inhibition": "mixed/irreversible"}
{"CHEM SMILES": "C#CCOc1ccc(-c2cc(=O)c3c(O)cc(OC)cc3o2)cc1", "Monoamine Oxidase B Type of Inhibition": "mixed/irreversible"}

###

SYSTEM: Monoamine Oxidase A (Homo sapiens, UniProt P21397)
Sequence (P21397 whole entry): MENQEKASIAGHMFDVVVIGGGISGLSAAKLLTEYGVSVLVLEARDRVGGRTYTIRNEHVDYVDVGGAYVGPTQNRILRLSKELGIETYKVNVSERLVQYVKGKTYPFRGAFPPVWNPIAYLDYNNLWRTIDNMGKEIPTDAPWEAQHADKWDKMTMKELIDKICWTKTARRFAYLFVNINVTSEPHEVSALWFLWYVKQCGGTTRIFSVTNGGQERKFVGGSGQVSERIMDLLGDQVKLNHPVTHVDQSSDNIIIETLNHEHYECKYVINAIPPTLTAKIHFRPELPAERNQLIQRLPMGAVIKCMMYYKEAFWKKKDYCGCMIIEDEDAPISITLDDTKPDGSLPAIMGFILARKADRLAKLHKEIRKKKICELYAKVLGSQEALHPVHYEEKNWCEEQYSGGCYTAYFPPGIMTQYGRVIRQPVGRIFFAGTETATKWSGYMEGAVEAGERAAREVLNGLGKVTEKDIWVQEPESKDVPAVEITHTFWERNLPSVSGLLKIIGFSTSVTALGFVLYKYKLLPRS
EXPERIMENTAL PROTOCOL: MAO-A inhibition kinetics (Ki, type of inhibition)
Assay type: biochemical
RUN PARAMETERS: mean ± S.D. of triplicate experiments
REPORTED ENDPOINT: Ki (nM)

{"CHEM SMILES": "COc1ccc(-c2cc(=O)c3c(O)cc(O)cc3o2)cc1", "REPORTED ENDPOINT": "Ki", "OBSERVED VALUE": 30}

###

SYSTEM: human recombinant MAO-B (Homo sapiens, UniProt P27338)
EXPERIMENTAL PROTOCOL: MAO-B inhibition kinetics, Lineweaver–Burk (Ki, type of inhibition)
RUN PARAMETERS: kynuramine 1.90–500 μM, mean ± S.D. of triplicate experiments, read-out: Monoamine Oxidase B Ki
pKi: −log10 of the molar value.
Each item that follows carries a reported pKi.
REPORTED ENDPOINT: pKi

{"COMPOUND": "C#CCOc1ccc(-c2cc(=O)c3c(O)cc(OC)cc3o2)cc1 [Compound 4c]", "OBSERVED VALUE": 7.17}
{"COMPOUND": "COc1cc(O)c2c(=O)cc(-c3ccc(OC(C)C)cc3)oc2c1 [Compound 2c]", "OBSERVED VALUE": 7.28}
{"COMPOUND": "CCCOc1ccc(-c2cc(=O)c3c(O)cc(OC)cc3o2)cc1 [Compound 1c]", "OBSERVED VALUE": 7.37}
{"COMPOUND": "COc1cc(O)c2c(=O)cc(-c3ccc(OCC(C)C)cc3)oc2c1 [Compound 3c]", "OBSERVED VALUE": 7.43}

###

SYSTEM: human recombinant MAO-B (Homo sapiens)
EXPERIMENTAL PROTOCOL: kynuramine oxidation deamination assay, MAO-B inhibition (IC50)
RUN PARAMETERS: recombinant human MAO-B; kynuramine 50 μM; mean ± S.D. of triplicate
pIC50: −log10 of the molar value.
pIC50 of 5 or higher: true. Under 5: false.

{"CHEM SMILES": "COc1cc(OC)c2c(=O)cc(-c3ccc(OCC4CC4)cc3)oc2c1", "SYSTEM": "human recombinant MAO-B (Homo sapiens)", "DISCRETE LABEL": "false"}
{"CHEM SMILES": "CCCOc1ccc(-c2cc(=O)c3c(O)cc(OC)cc3o2)cc1", "SYSTEM": "human recombinant MAO-B (Homo sapiens)", "DISCRETE LABEL": "true"}
{"CHEM SMILES": "COc1cc(O)c2c(=O)cc(-c3ccc(NCC4CC4)cc3)oc2c1", "SYSTEM": "human recombinant MAO-B (Homo sapiens)", "DISCRETE LABEL": "true"}
